Study Target: gB-1 (Human herpesvirus 1, UniProt P10211)
Run Description: Luminex competition: inhibition of binding of BMPC-23 human IgG to gB-1
Set-up: species or system HSV-1
Test Conditions: Table 3 summary
Attribute Measured: Competition with BMPC-23

HSV010-14: gB-1 specific mouse monoclonal IgG; IgH SEQ ID NO: 56, IgL SEQ ID NO: 58 (antibody, V domains shown, HSV010-14 heavy chain; HSV010-14 light chain) VH: QVQLQQPGAELVKPGASVKLSCKASGYTFTSYWIHWVKQRPGQGLEWIGMIHPNSGIAHYSEKFKSTATLTVDKSSSTAYMQLSSLTSEDSSVYYCARGSSSGSAWFAYWGQGTLVTVSAA VL: DIQMTQSSSYLSVSLGGRVTITCKAGDHINNWLAWYQQKPGNAPRLLISGATSLETGVPSRFSGSGSGKDYTLSITSLQTEDVATYYCQQYWSTPLTFGAGTKLELKR    Weak

Reference for the values: patent US12459987B2
